Origin of measurements: PubChem BioAssay AID2156

biological target: Potassium voltage-gated channel subfamily KQT member 2 (Rattus norvegicus) (UniProt O88943); assay: rat KCNQ2 potassium channel inhibitors, primary screen, cell-based, CHO-K1, FluxOR thallium flux, B-score (AID 2156); conditions: 20 min, at 10 µM
Sequence (O88943 whole entry, looked up): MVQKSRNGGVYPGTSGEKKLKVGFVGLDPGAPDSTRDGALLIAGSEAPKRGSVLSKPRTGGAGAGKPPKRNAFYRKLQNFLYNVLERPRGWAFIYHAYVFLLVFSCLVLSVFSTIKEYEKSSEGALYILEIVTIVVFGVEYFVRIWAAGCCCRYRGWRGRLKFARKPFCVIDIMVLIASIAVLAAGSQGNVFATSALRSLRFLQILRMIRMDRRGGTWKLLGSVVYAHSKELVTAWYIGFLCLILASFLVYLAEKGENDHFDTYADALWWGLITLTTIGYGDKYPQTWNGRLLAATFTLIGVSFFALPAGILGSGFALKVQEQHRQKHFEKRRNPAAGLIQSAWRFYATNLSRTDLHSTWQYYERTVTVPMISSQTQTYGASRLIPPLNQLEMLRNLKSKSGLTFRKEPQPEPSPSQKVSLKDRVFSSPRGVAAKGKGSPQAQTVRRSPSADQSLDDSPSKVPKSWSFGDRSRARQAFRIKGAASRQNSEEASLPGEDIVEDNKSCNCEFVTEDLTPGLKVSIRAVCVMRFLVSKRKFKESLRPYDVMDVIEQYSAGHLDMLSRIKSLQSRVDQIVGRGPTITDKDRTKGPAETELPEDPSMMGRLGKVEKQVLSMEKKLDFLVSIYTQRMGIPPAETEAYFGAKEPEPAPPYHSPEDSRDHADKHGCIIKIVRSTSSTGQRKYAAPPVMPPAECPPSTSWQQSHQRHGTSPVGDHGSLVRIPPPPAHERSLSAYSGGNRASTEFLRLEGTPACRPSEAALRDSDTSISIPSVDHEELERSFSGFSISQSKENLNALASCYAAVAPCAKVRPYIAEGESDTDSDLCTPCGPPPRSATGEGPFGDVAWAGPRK
In all, about 310,000 compounds went through this assay and about 3,400 (1.1%) were called active.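 The calls were made as follows: active = fluorescence ratio B-score at most minus 3 library SDs, with starting brightness B-score within 2 library SDs (cut at about -5.5 in these data); inactive = the rest, inconclusive results apart.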 The sample as a whole holds a higher share of actives than the screen did.
Answer with one of the outcomes given here: YES (active), NO (inactive)

Solved cases (8 shown):
CC1=C(C(=O)Nc2ccccc2)C(c2ccco2)C(C#N)=C(SCC(N)=O)N1 (stereo unspecified): NO
c1ccc2c(CSCc3nc4ccccc4[nH]3)cccc2c1: NO
COc1ccc(C(=O)N(Cc2ccccc2)c2ccc(C)cc2)cc1S(=O)(=O)N1CCOCC1: NO
CCc1ccc(C(=O)NC(=S)Nc2ccccc2N2CCOCC2)cc1: NO
c1ccc(-c2nnc(SCc3nc4ccccc4[nH]3)o2)cc1: NO
COc1ccc(C(CNC(=O)c2cccc(S(=O)(=O)Nc3ccccc3Cl)c2)N2CCOCC2)cc1 (stereo unspecified): NO
COc1ccccc1NS(=O)(=O)c1ccc(C(=O)N2CCN(c3ccccc3O)CC2)cc1: NO
CC1CCN(C(=O)c2ccc3c(c2)NC(=O)CN3)CC1: NO

Entry CCOc1ccc(NS(=O)(=O)c2ccc(C(=O)NCC(c3ccccc3OC)N3CCCC3)cc2)cc1 (stereo unspecified) : call = ?
NO

For CC1(c2cccc([N+](=O)[O-])c2)CC(C)(C)N(C(=O)c2ccccc2)c2ccccc21 (stereo unspecified) then?
YES

For `COc1ccc(C(=O)c2c3ccc([N+](=O)[O-])cc3[n+]([O-])n2CCCN)cc1` then?
NO

For COc1ccccc1C(CNC(=O)c1cccc(NS(=O)(=O)c2ccc(Br)cc2)c1)N(C)C (stereo unspecified) then?
NO

For `CCc1noc(C)c1C(=O)N1CCCSC1=Nc1ccccc1OC` then?
NO

For `C=CCOC(=O)C1=C(C)NC(C)=C(C(=O)OCC=C)C1c1cccs1` then?
NO

For CC1=C(C(=O)Nc2ccccc2)C(c2cccs2)C(C#N)=C(SCC#N)N1 (stereo unspecified) then?
YES

For CCOC(=O)CSC1=C(C#N)C(c2ccco2)C(C(=O)OCc2ccccc2)=C(C)N1 (stereo unspecified) then?
NO

For `CCOc1ccc2ccccc2c1/C=N/NC(=O)c1c(C)cc(C)[nH]c1=O` then?
NO

For `CCc1ccc2ncc(C(=O)c3ccccc3)c(N3CCOCC3)c2c1` then?
YES

For C=CCOC(=O)C1=C(C)NC(SCC(=O)OCC)=C(C#N)C1c1ccc(C)cc1 (stereo unspecified) then?
YES

For C=CCOC(=O)C1=C(C)OC(N)=C(C#N)C1c1ccc(F)cc1 (stereo unspecified) then?
NO

For `Nc1c(C(=O)Nc2ccc3c(c2)OCCO3)nnn1Cc1ccccc1` then?
NO

----------
molecular target: Potassium voltage-gated channel subfamily KQT member 2 (Rattus norvegicus); assay: rat KCNQ2 potassium channel inhibitors, primary screen, cell-based, CHO-K1, FluxOR thallium flux, B-score (AID 2156); details: 20 min, at 10 µM
In all, about 310,000 compounds went through this assay and about 3,400 (1.1%) were called active.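 The calls were made as follows: active = fluorescence ratio B-score at most minus 3 library SDs, with starting brightness B-score within 2 library SDs (cut at about -5.5 in these data); inactive = the rest, inconclusive results apart.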 Many of the other results were omitted from the sample, so actives are more common in it than they were.
Answer with one of the outcomes given here: active, inactive

Solved cases (5 shown):
O=C(c1cc2cc(F)ccc2[nH]1)N1CCN(c2ccc(F)cc2)CC1: inactive
COc1ccccc1CNC(=O)CSc1nc(=O)n(Cc2ccncc2)c2c1CCC2: inactive
N#Cc1cccc(OC(=O)c2ccc3c(=O)n4c(nc3c2)CCC4)c1: inactive
O=C(c1cccc(F)c1)N1CCN(c2ccc([N+](=O)[O-])c(N3CCCCC3)c2)CC1: inactive
COc1ccc2c(c1)C(=O)Nc1cc(Cl)ccc1N2: inactive

Entry `CCOC(=O)N1CCN(C(=O)c2ccccc2SCC(=O)NCC2CCCCC2)CC1` : call = ?
inactive

For Cc1ccc(C(=O)NC2CCCC(C)C2C)cc1S(=O)(=O)N1CCCCC1 (stereo not given) then?
inactive

For `COc1cnn(-c2ccc([N+](=O)[O-])cc2)c(=O)c1Cl` then?
inactive

For `CC(C)N(C(=O)c1ccc(-c2ccccc2F)cc1)C(C)C` then?
inactive

For `O=C(c1cccc(C(=O)N2CCN(c3ccc(F)cc3)CC2)c1)N1CCN(c2ccc(F)cc2)CC1` then?
active

----------
biological target: Potassium voltage-gated channel subfamily KQT member 2 (Rattus norvegicus) (UniProt O88943); assay: rat KCNQ2 potassium channel inhibitors, primary screen, cell-based, CHO-K1, FluxOR thallium flux, B-score (AID 2156); conditions: 20 min, at 10 µM
Out of some 310,000 compounds screened, about 3,400 (1.1%) were called active.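 Rule for the calls: active = fluorescence ratio B-score at most minus 3 library SDs, with starting brightness B-score within 2 library SDs (cut at about -5.5 in these data); inactive = the rest, inconclusive results apart.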 Shown is part of a subset that was picked to be rich in actives.
Answer with one of the outcomes given here: Y for active, N for inactive

COc1cc(C(=O)NCC(=O)NCCSc2ccc(Br)cc2)cc(OC)c1OC: N

Entry `COc1ccccc1C(=O)Nc1ccc(Nc2ccccc2)cc1` : call = ?
N

----------
biological target: Potassium voltage-gated channel subfamily KQT member 2 (Rattus norvegicus) (UniProt O88943); assay: rat KCNQ2 potassium channel inhibitors, primary screen, cell-based, CHO-K1, FluxOR thallium flux, B-score (AID 2156); settings: 20 min, at 10 µM; stronger effect = lower value
The whole screen tested about 310,000 compounds, of which about 3,400 (1.1%) were called active. The list comes from a sample in which actives are over-represented; it also holds close analogues and randomly drawn compounds.
outcomeMeasure: B-score

Some solved cases for reference:
O=C(COC(=O)Cc1c[nH]c2ccccc12)NCCc1ccccc1: -0.71 (inactive)
CCOC(=O)CN(C)Cc1c[nH]c2ccccc12: inactive
CCn1c(SC(C)C(=O)Nc2ccc(N3CCOCC3)cc2)nnc1-c1ccco1 (stereo not given): inactive
CC[C@@]12C(=O)N(c3ccccc3)C(=O)N1[C@H](c1ccc(Br)cc1)[C@@H]1C(=O)N(C(C)(C)C)C(=O)[C@@H]12: inactive
CCN(C(=O)COC(=O)c1sccc1C)c1c(N)n(Cc2ccccc2)c(=O)[nH]c1=O: inactive

Provide the reported B-score of each entry below, same order.
1. CCOC(=O)N1CCN(C(=O)COc2ccc3oc4c(c3c2)CCCC4)CC1
2. CC(=O)N1CCN(C(=O)c2cc(-c3ccc(C)o3)nc3ccccc23)CC1
3. CCCCn1c(N)c(N(CCOC)C(=O)c2cccc(S(=O)(=O)N(C)c3ccccc3)c2)c(=O)[nH]c1=O
4. O=C(NCCS(=O)(=O)N1CCN(c2ccc(F)cc2)CC1)c1ccc2c(c1)OCO2

inactive
inactive
-0.06 (inactive)
inactive

Quick one: B-score for `Cc1csc2nc(O)c(C(=O)NCCN3CCOCC3)c(=O)n12` ?
inactive

----------
biological target: Potassium voltage-gated channel subfamily KQT member 2 (Rattus norvegicus); assay: rat KCNQ2 potassium channel inhibitors, primary screen, cell-based, CHO-K1, FluxOR thallium flux, B-score (AID 2156); details: 20 min, at 10 µM
The whole screen tested about 310,000 compounds, of which about 3,400 (1.1%) were called active.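 Rule for the calls: active = fluorescence ratio B-score at most minus 3 library SDs, with starting brightness B-score within 2 library SDs (cut at about -5.5 in these data); inactive = the rest, inconclusive results apart.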 Many of the other results were omitted from the sample, so actives are more common in it than they were.
Answer with one of the outcomes given here: active, inactive

Solved cases (5 shown):
CCc1ccc(OCC(=O)NCC(c2ccc(Cl)cc2)N2CCCCC2)cc1 (stereo not given): active
CCOc1cc(-c2nc3cc(C)ccn3c2NCC2CCCO2)ccc1O (stereo not given): active
CCOc1ccc(C(=O)Nc2cc(Cl)ccc2-n2cncn2)cc1OC: inactive
Cc1ccc(N2C(=O)C3C(c4ccccc4)(C2=O)C3(c2ccccc2)c2ccccc2)cc1 (stereo not given): active
CCOC(=O)C1=C(NC(=S)NC(=O)c2ccccc2)c2ccccc2CC1(C)C: inactive

Entry `O=C1CC2(CCN(C(=O)COc3ccc(F)cc3)CC2)Oc2ccccc21` : call = ?
inactive

For `COc1cccc(CC(=O)Nc2nc(-c3ccc(OC)c(OC)c3)cs2)c1` then?
inactive

For `COc1ccc(CCN(C(=O)COc2ccccc2)c2nc(-c3ccccc3)cs2)cc1OC` then?
active

For `CC1(C)Cc2ccccc2/C(=C/C(=O)c2ccccc2)N1` then?
active

For Cc1ccc(N2C(=O)CC(Nc3cccc4ccccc34)C2=O)cc1 (stereo not given) then?
inactive

----------
molecular target: Potassium voltage-gated channel subfamily KQT member 2 (Rattus norvegicus) (UniProt O88943); experiment: rat KCNQ2 potassium channel inhibitors, primary screen, cell-based, CHO-K1, FluxOR thallium flux, B-score (AID 2156); settings: 20 min, at 10 µM
Among all 310,000 compounds or so, about 3,400 (1.1%) were called active.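 How the source made its calls: active means fluorescence ratio B-score at most minus 3 library SDs, with starting brightness B-score within 2 library SDs (cut at about -5.5 in these data); inactive means the rest, inconclusive results apart.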 This is one part of a sample in which actives are shown more often than they occur.
Answer with one of the outcomes given here: t (active), f (inactive)

CC1(c2ccccc2)CC(C)(C)N(C(=O)c2cc([N+](=O)[O-])cc([N+](=O)[O-])c2)c2ccccc21 (stereo not given): f
O=S(=O)(Nc1ccc(-c2ccc(N3CCOCC3)nn2)cc1)c1cc(Cl)ccc1Cl: f
C=CCn1c(SCC(=O)/C(C#N)=C(\C)N)nc2sc(C)c(C)c2c1=O: t

Entry `Cc1ccc(C2=N/C(=C\c3ccc(OS(=O)(=O)c4ccc(C)cc4)cc3)C(=O)O2)cc1` : call = ?
t

For `O=C(c1cccc([N+](=O)[O-])c1)N1CCN(Cc2ccccc2)CC1` then?
f

For CN1CCN(C2Cc3ccc(Cl)cc3Sc3ccc(F)cc32)CC1 (stereo not given) then?
f

For `CC(=O)Nc1ccc(NC(=O)CSC2=NS(=O)(=O)c3ccccc3N2)cc1` then?
f

For C=CCn1c(SCC(=O)NCC2CCCO2)nc2sc(C)c(C)c2c1=O (stereo not given) then?
f

For `Cc1ccc(S(=O)(=O)Oc2ccc(/C=N/NC(=O)c3ccncc3)cc2)cc1` then?
f

For `CCOc1ccc(C(C)=O)cc1COC(=O)CNC(=O)c1cccs1` then?
f
